- subject-of-test: purified human autoBACE-2 (Homo sapiens (Human))
- Sequence (Q9Y5Z0 63-473 limits assumed): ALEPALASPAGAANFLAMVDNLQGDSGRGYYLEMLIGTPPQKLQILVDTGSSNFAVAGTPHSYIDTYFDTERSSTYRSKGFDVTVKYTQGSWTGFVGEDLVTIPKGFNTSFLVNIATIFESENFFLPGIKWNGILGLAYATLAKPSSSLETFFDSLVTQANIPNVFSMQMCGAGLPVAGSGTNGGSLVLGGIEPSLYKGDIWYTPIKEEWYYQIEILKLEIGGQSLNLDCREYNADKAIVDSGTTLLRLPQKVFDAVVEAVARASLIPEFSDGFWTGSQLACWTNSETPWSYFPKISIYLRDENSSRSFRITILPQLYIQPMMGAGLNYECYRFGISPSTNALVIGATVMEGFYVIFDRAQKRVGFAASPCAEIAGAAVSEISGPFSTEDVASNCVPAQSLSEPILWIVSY
test-readout: Ki (µM)

{"columns": ["compound", "readout-unit", "numeric-readout"],
 "data": [
  ["CN1C(=N)N[C@](C)(c2sc(-c3nnc(-c4ccc(Cl)cc4)o3)cc2F)CS1(=O)=O", "µM", 0.0136],
  ["CN1C(=N)N[C@](C)(c2cc(-c3ccc(-c4nnco4)[nH]3)ccc2F)CS1(=O)=O", "µM", 0.172]
]}

[a] CN1C(=N)N[C@](C)(c2sc(-c3nnc(-c4ccc(N5CCCCC5)cc4)o3)cc2Cl)CS1(=O)=O
[b] CC(C)Oc1ccc(-c2nnc(-c3cc(Cl)c([C@]4(C)CS(=O)(=O)N(C)C(=N)N4)s3)o2)cc1
Quick check, higher Ki between a and b ? # reply format: chosen label
a

---

- subject-of-test: human P-glycoprotein (Homo sapiens (Human))
- Sequence (P08183 whole entry): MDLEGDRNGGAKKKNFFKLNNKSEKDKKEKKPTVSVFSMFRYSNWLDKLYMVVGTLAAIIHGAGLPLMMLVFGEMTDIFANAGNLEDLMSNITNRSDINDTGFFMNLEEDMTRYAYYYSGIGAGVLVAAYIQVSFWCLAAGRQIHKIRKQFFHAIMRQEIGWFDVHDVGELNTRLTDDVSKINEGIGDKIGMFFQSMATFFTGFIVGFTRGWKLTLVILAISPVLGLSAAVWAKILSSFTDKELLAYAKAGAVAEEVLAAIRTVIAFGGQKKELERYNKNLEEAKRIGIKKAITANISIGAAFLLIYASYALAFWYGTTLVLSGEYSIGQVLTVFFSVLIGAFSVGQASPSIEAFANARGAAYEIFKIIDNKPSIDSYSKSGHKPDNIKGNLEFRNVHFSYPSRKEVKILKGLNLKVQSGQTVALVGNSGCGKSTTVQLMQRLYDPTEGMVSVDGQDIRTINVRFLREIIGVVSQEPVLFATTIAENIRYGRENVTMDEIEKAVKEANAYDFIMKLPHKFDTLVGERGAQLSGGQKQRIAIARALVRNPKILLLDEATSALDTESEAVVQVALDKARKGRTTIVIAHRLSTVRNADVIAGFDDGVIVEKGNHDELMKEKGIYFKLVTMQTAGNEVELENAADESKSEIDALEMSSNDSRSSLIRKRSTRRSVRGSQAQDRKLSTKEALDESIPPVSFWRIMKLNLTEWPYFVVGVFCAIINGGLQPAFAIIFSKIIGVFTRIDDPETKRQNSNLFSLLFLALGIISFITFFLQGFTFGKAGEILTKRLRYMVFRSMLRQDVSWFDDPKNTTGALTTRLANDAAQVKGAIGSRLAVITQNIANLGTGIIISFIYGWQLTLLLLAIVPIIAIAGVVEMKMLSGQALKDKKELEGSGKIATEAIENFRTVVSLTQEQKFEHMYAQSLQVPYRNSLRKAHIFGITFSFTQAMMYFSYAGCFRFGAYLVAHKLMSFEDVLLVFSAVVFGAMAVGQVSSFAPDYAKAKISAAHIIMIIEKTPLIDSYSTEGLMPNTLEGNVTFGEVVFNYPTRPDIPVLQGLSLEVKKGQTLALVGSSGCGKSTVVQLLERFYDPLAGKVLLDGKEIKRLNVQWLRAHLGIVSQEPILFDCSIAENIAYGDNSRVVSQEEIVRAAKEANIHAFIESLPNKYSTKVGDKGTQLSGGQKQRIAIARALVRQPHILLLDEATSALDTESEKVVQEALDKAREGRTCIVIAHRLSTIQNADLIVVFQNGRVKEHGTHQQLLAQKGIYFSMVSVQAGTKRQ
- test-name: Efflux by human P-glycoprotein (Pgp Mdr1 efflux ratio)
- Type: in vitro ADME
test-readout: Pgp Mdr1 ER

{"columns": ["structure-notation", "Pgp Mdr1 ER"],
 "data": [
  ["CN1C(=N)N[C@](C)(c2sc(-c3nnc(-c4ccccc4)o3)cc2Cl)CS1(=O)=O", 1.3],
  ["COc1ccc(-c2nnc(-c3cc(Cl)c([C@]4(C)CS(=O)(=O)N(C)C(=N)N4)s3)o2)cc1", 1.0],
  ["CN1C(=N)N[C@](C)(c2sc(-c3nnc(-c4ccc(Cl)cc4)o3)cc2Cl)CS1(=O)=O", 1.1],
  ["CN1C(=N)N[C@](C)(c2sc(-c3nnc(-c4ccc(Cl)cc4)o3)cc2F)CS1(=O)=O", 1.0]
]}

[a] CN1C(=N)N[C@](C)(c2sc(-c3nnc(-c4ccc(F)cc4)o3)cc2Cl)CS1(=O)=O
[b] CN1C(=N)N[C@](C)(c2sc(-c3nnc(-c4ccc(C(F)(F)F)cc4)o3)cc2Cl)CS1(=O)=O
Smaller Pgp Mdr1 ER value? Options are a and b # reply format: chosen label
b
(b: 0.7, a: 1.4)

---

pKi: −log10 of the molar value.
Assay system purified human autoBACE-2 (Homo sapiens (Human), UniProt Q9Y5Z0); read-out recorded as pKi.
test-readout: pKi

{"columns": ["compound", "pKi"],
 "data": [
  ["CN1C(=N)N[C@](C)(c2sc(-c3nnc(-c4ccc(N5CCCC5=O)cc4)o3)cc2Cl)CS1(=O)=O", 5.97]
]}

[P] CN1C(=N)N[C@](C)(c2sc(-c3nnc(-c4cccnc4)o3)cc2Cl)CS1(=O)=O
[Q] CN1C(=N)N[C@](C)(c2sc(-c3nnc(-c4ccc(C5CCC(F)(F)C5)cc4)o3)cc2Cl)CS1(=O)=O (stereo partly drawn)
Smaller pKi value? Options are P and Q # reply format: chosen label
Q
(Q: 5.73, P: 6.16)

Cited source: patent US9422277B2
